- System: HCT-116
- assay details: Cytotoxicity against human HCT116 cells at 10 uM after 2 days by MTT assay
- Format: functional
- conditions: HCT-116, 48 h
assay metric: inhibition at 10 µM

                               smiles_entry         assay_metric  result
0    CCN(CC)CCNc1nc(NCc2ccco2)c2cc(F)ccc2n1  inhibition at 10 µM   26.4%
1  Cc1cccc(N2CCN(CCCNc3nc(NCc4ccco4)c4cc(F)ccc4n3)CC2)c1C  inhibition at 10 µM   97.3%
2  Fc1ccc2nc(NCCCN3CCOCC3)nc(NCc3ccco3)c2c1  inhibition at 10 µM   52.1%
3  Cc1cccc(N2CCN(CCCCNc3nc(NCc4ccco4)c4ccccc4n3)CC2)c1C  inhibition at 10 µM   94.3%
4    c1coc(CNc2nc(NCCCN3CCCC3)nc3ccccc23)c1  inhibition at 10 µM   67.5%
5        CCCCCNc1nc(NCc2ccco2)c2cc(F)ccc2n1  inhibition at 10 µM   94.2%
6  Fc1ccc2nc(NCCCCN3CCN(c4cccc(Cl)c4Cl)CC3)nc(NCc3ccco3)c2c1  inhibition at 10 µM   97.1%

###

The following compounds are listed with their measured inhibition at 10 µM values.
- Test system: MCF7
- assay details: Cytotoxicity against human MCF7 cells at 10 uM after 2 days by MTT assay
- Assay type: functional
- conditions: MCF7, 48 h
assay metric: inhibition at 10 µM

                                smiles_entry         assay_metric  result
 0    c1coc(CNc2nc(NCCN3CCOCC3)nc3ccccc23)c1  inhibition at 10 µM   95.8%
 1  Clc1cccc(N2CCN(CCCNc3nc(NCc4ccco4)c4ccccc4n3)CC2)c1Cl  inhibition at 10 µM   95.8%
 2         CCCCNc1nc(NCc2ccco2)c2cccc(F)c2n1  inhibition at 10 µM     87%
 3  Cc1cccc(N2CCN(CCCCNc3nc(NCc4ccco4)c4cc(F)ccc4n3)CC2)c1C  inhibition at 10 µM   97.7%
 4            CCCCNc1nc(NCc2ccco2)c2ccccc2n1  inhibition at 10 µM   66.7%
 5  Cc1cccc(N2CCN(CCCCNc3nc(NCc4ccco4)c4ccccc4n3)CC2)c1C  inhibition at 10 µM   95.8%
 6        CCCCCNc1nc(NCc2ccco2)c2cc(F)ccc2n1  inhibition at 10 µM   94.4%
 7  Cc1cccc(N2CCN(CCCNc3nc(NCc4ccco4)c4ccccc4n3)CC2)c1C  inhibition at 10 µM   95.9%
 8    COc1ccc(Nc2nc(NCc3ccco3)c3ccccc3n2)cc1  inhibition at 10 µM   64.5%
 9  Fc1ccc2nc(NCCN3CCN(c4cccc(Cl)c4Cl)CC3)nc(NCc3ccco3)c2c1  inhibition at 10 µM   95.5%
10  Clc1cccc(N2CCN(CCCCNc3nc(NCc4ccco4)c4ccccc4n3)CC2)c1Cl  inhibition at 10 µM   95.8%
